assay remarks: Physical property (vapor pressure, odor) of alphacarboxylic acids and peroxyalphacarboxylic acids
Assay type: physicochemical
reported metric: Odor

CC(=O)O [Acetic Acid]; Sour
CC(O)C(=O)OO (centres unmarked) [PLA, peroxylactic acid]; Odorless
O=C(O)CO [Glycolic acid]; Odorless

Source of measurements: patent US12258310B2
